For each of the molecules below, state its TGI.
- Test system: SK-MEL-28 melanoma
- experimental.protocol: NCI tumour cell line growth inhibition, 48 h
Give bare numbers, in µM.

Recorded TGI, per entry:
COc1ccc(/C=C(\C#N)n2nnc3cc(Cl)ccc32)cc1 : 31.2
c1ccc(Oc2c3ccccc3nc3ccccc23)cc1 : 24.1
COc1ccc(C(=O)c2cc(OC)c(OC)c(OC)c2)cc1/C=C/C(=O)c1ccc(O)cc1 : 17.5

Working through the 6 molecules below one at a time, give TGI for each.
1. CCNCCNc1cc(-c2ccc(Cl)cc2)c(C#N)c2nc3ccccc3n12
2. O=C(/C=C/c1ccsc1)c1cccs1
3. O=C1C(Cl)=C(Oc2ccccc2)C(=O)c2ccccc21
4. COC(=O)c1ccc(-c2nc3cc(F)c(F)cc3nc2C#N)cc1
5. OCc1ccc(N(Cc2ccc(F)cc2)C2CCC2)cc1Cl
6. COC(=O)C/C(C)=C/[C@@H](O)[C@H]1O[C@@H]2CC/C(Cl)=C/C/C=C(/C)[C@H](OC(C)=O)CC(=O)O[C@@H]1C2

1. 3.34
2. 46.1
3. 27.1
4. 33.9
5. 26.4
6. 5.75

* * *

For each of the compounds below, state its TGI.
- System: PC-3 prostate
- experimental.protocol: NCI tumour cell line growth inhibition, 48 h

Working through the 2 compounds below one at a time, give TGI for each.
1. COc1cc2c(cc1C)NC(=O)/C2=C\c1cccnc1
2. O=C(c1c(F)c(F)c(F)c(F)c1F)n1c(=O)[nH]c2ccccc21

1. > 100 µM
2. 21.8 µM

Working through the 5 compounds below one at a time, give TGI for each.
1. O=P(Oc1ccccc1)(Oc1ccccc1)C(O)c1ccccc1 (centres undefined)
2. N/C(=N\Nc1cccc(Cl)c1)c1cccnc1
3. CC(C)SC1SCC2C(=O)N(C)C3(CC3C)C(=O)OCC(NC(=O)c3nc4ccccc4cc3O)C(=O)NC(C)C(=O)N(C)C1C(=O)N(C)C1(CC1C)C(=O)OCC(NC(=O)c1nc3ccccc3cc1O)C(=O)NC(C)C(=O)N2C (centres undefined)
4. O=C1CSC2(CC(/C=C/c3cccc(Br)c3)=NN2c2cccc(S(=O)(=O)O)c2)N1c1nc2ccccc2s1 (centres undefined)
5. Nc1ccc2c(c1)N(C(=O)CCCC(=O)N1CC(CCl)c3ccc(N)cc31)CC2CCl (centres undefined)

["> 100 µM", "> 100 µM", "< 0.0001 µM", "> 100 µM", "16.4 µM"]

Working through the 2 compounds below one at a time, give TGI for each.
1. CCN(Cc1ccc(F)cc1F)c1ccc(CO)c(Cl)c1
2. CCOC(=O)c1sc2ncn(Cc3cccc(Cl)c3)c(=O)c2c1C

49.2 µM
25.8 µM

* * *

- System: MDA-N
- experimental.protocol: NCI tumour cell line growth inhibition, 48 h
Label scheme for TGI: lower than 30 µM is F, 30 µM and above is T.

O=C1CCCSCCCC(=O)CCCSCCC1 : T
COc1ccc(/C=C/C(=O)c2cccc(C(=O)/C=C/c3ccc(OC)c(OC)c3)n2)cc1OC : T
COc1ccc(C[C@H]2NC[C@H](OC(C)=O)[C@H]2OC(C)=O)cc1 : F

Does CCOC(=O)C12C3CCC1C2C(=O)C3 (stereo not given) have a reported TGI of at least 30 µM? T

Does `CC(=O)O[C@H]1CC[C@@]2(C)C(=CC[C@H]3[C@@H]4C[C@H](N5CCN(C)CC5)[C@H](OC(C)=O)[C@@]4(C)CC[C@@H]32)C1` have a reported TGI of at least 30 µM? F

Does CC1CC/C(=C\c2ccc(Cl)cc2)C(=O)/C1=C\c1ccc(Cl)cc1 (stereo not given) have a reported TGI of at least 30 µM? T

Does `C=C[C@@]1(C)CC(=O)[C@]2(O)[C@@]3(C)[C@@H](OC(C)=O)CCC(C)(C)[C@@H]3[C@H](O)[C@H](OC(C)=O)[C@@]2(C)O1` have a reported TGI of at least 30 µM? T

Does CCC(C)C1=C(O)[N+]2([O-])Oc3ccc(-c4c(O)c(O)c(-c5ccc(O)cc5)c(OC(C)=O)c4OC(C)=O)cc3OC2(C(C)CC)C(=O)N1O (stereo not given) have a reported TGI of at least 30 µM? T
